recorded endpoint: melting point

Task: Tell me its melting point given `CCCCS(=O)(=O)NC(=O)c1ccc2nc(C)n(Cc3ccc(OC)cc3Cl)c2n1` as the entry.
Output: 175 to 177 °C

Task: Tell me its melting point given `CCCCCN(C)c1ccc(Cn2c(C)nc3ccc(C(=O)NS(=O)(=O)CCCCC)nc32)c(Cl)c1` as the entry.
Output: 83 to 85 °C

Task: Tell me its melting point given `CCCCCOc1ccc(Cn2c(C)nc3ccc(C(=O)NS(=O)(=O)NCCCC)nc32)c(Cl)c1` as the entry.
Output: 136 to 138 °C

Task: Tell me its melting point given `CCCCCS(=O)(=O)NC(=O)c1ccc2nc(CC)n(Cc3ccc(OCC4CCCCC4)cc3Cl)c2n1` as the entry.
Output: 137 to 139 °C

Task: Tell me its melting point given `CCCCCS(=O)(=O)NC(=O)c1ccc2nc(C)n(Cc3ccc4c(nc(C)n4C)c3Cl)c2n1` as the entry.
Output: 229 to 231 °C

Task: Tell me its melting point given `CCCCCOc1ccc(Cn2c(C)nc3ccc(C(=O)NS(=O)(=O)NCCC)nc32)c(Cl)c1` as the entry.
Output: 155 to 158 °C

Task: Tell me its melting point given `CCCCCS(=O)(=O)NC(=O)c1cc(C)c2nc(C)n(Cc3ccc(OCCC)cc3Cl)c2n1` as the entry.
Output: 161 to 162 °C

Task: Tell me its melting point given `CCCCCS(=O)(=O)NC(=O)c1ccc2nc(C)n(Cc3ccc(N(C)CC)cc3Cl)c2n1` as the entry.
Output: 148 to 149 °C

Task: Tell me its melting point given `CCCCCS(=O)(=O)NC(=O)c1ccc2nc(C)n(Cc3ccc(N(CC)C(=O)OC(C)(C)C)cc3Cl)c2n1` as the entry.
Output: 131 to 132 °C

Task: Tell me its melting point given `CCCCCS(=O)(=O)NC(=O)c1ccc2nc(C)n(Cc3ccc(N(C)C(=O)OC(C)C)cc3Cl)c2n1` as the entry.
Output: 151 to 152 °C

Task: Tell me its melting point given `CCC/C=C/S(=O)(=O)NC(=O)c1ccc2nc(C)n(Cc3ccc(NC(=O)OCC)cc3Cl)c2n1` as the entry.
Output: 233 to 234 °C

Task: Tell me its melting point given `CCCCS(=O)(=O)NC(=O)c1ccc2nc(C)n(Cc3ccc(OCC4CCCC4)cc3Cl)c2n1` as the entry.
Output: 180 to 181 °C

Task: Tell me its melting point given `CCCCCS(=O)(=O)NC(=O)c1ccc2nc(C)n(Cc3ccc(N(C)C(=O)OCCC)cc3Cl)c2n1` as the entry.
Output: 169 to 170 °C

Task: Tell me its melting point given `CCCCCS(=O)(=O)NC(=O)c1ccc2nc(C)n(Cc3ncc(Cl)cc3Cl)c2n1` as the entry.
Output: 155 to 156 °C

Task: Tell me its melting point given `CCCCCS(=O)(=O)NC(=O)c1ccc2nc(C)n(Cc3ccc(OCC4CCCCC4)cc3Cl)c2n1.[Na]` as the entry.
Output: > 250 °C

Task: Tell me its melting point given `CCCCCS(=O)(=O)NC(=O)c1cc(C)c2nc(C)n(Cc3ccc(-c4ccco4)cc3Cl)c2n1` as the entry.
Output: 177 to 178 °C
